Target: human GnRH receptor (Homo sapiens)
Construct: The cDNA for the human GnRH receptor is cloned into the plasmid expression vector, pcDNA 3; expressed in transfected cells; host or cells: HEK 293 cells, stably transfected (pcDNA 3); membrane preparation
Sequence (P30968 whole entry): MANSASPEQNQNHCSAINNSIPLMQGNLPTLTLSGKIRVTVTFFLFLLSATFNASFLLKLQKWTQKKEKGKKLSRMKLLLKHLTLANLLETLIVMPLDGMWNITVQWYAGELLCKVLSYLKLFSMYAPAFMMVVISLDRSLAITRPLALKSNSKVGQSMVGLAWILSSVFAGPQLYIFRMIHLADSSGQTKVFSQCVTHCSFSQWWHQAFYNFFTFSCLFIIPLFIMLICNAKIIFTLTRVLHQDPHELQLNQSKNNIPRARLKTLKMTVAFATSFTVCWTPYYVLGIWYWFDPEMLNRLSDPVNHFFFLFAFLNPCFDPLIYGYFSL
Test: GnRH receptor competitive radioligand binding assay (125I-GnRH-A, HEK 293 cell membranes)
Conditions: compound at 10 μM; crude compounds; 125I-GnRH-A; lower value = higher inhibition; read-out: % Remaining 1st Test (percent of specific binding remaining)
result.type: remaining activity at 10 µM (%)
Please reply with the bare figure in % and do not write the unit itself.

CN(C)Cc1ccc(CN(CC2C=CCC3C4CC=CCC4OC23)C(=O)c2ccc3ccccc3c2)cc1 (stereo not shown) = 61

remaining activity at 10 µM in this record for N=C(N)NCc1cccc(CN(CC23CC=CCC2C2CC=CCC2O3)C(=O)c2cccc3ccccc23)c1 (stereo not shown) : 59

Measured remaining activity at 10 µM of N=C(N)NCC1CCCC(CN(CC23CC=CCC2C2CC=CCC2O3)C(=O)c2cccc3ccccc23)C1 (stereo not shown) : 39

get_value(item= N=C(N)NCc1ccc(CN(CC23CC=CCC2C2CC=CCC2O3)C(=O)c2cccc3ccccc23)cc1 (stereo not shown) , readout=remaining activity at 10 µM) returns 40

So, N=C(N)NCC1CCCC(CN(Cc2ccc(OCc3ccccc3)c(OCc3ccccc3)c2)C(=O)c2ccc(Cl)nc2)C1 (stereo not shown) ? Its remaining activity at 10 µM was 46

Lab book: remaining activity at 10 µM of N=C(N)NCC1CCCC(CN(CC23CC=CCC2C2CC=CCC2O3)C(=O)c2ccc3ccccc3c2)C1 (stereo not shown) noted as 48

Field remaining activity at 10 µM (entry Cc1cc(C(=O)N(Cc2cc3c(cc2C)C(C)(C)CCC3(C)C)CC2CCC(CNC(=N)N)CC2)n(C(C)(C)C)n1 (stereo not shown) ) reads 56
